Just for reference, the C3SDB collision cross section collection is where these values come from.

# CONDITION: [M+Na-2H]-; instrument: DT; single field, calibrated with ESI Low Concentration Tuning Mix (Agilent)
VALUE KIND: collision cross section (N2) (Å²)

{"columns": ["MOLECULE", "NUMERIC READOUT"],
 "data": [
  ["O=P(O)(O)OC(CO)CO [BETA-GLYCEROPHOSPHATE]", 147.2],
  ["O=c1ccn([C@H]2C[C@H](O)[C@@H](COP(=O)(O)OP(=O)(O)OP(=O)(O)O)O2)c(=O)[nH]1 [DEOXYURIDINE TRIPHOSPHATE]", 188.9],
  ["Nc1ccn([C@@H]2O[C@H](COP(=O)(O)OP(=O)(O)O)[C@@H](O)[C@H]2O)c(=O)n1 [CYTIDINE DIPHOSPHATE]", 176.3],
  ["O=P(O)(O)OC1C(OP(=O)(O)O)C(OP(=O)(O)O)C(OP(=O)(O)O)C(OP(=O)(O)O)C1OP(=O)(O)O (stereo not given) [PHYTATE]", 201.3],
  ["C[C@@H]1NC(=O)N[C@@H]1CCCCCC(=O)O [DETHIOBIOTIN]", 148.8],
  ["N[C@@H](CCOC(=O)CCC(=O)O)C(=O)O [O-SUCCINYL-HOMOSERINE]", 145.8],
  ["C[N+](C)(C)CCOP(=O)([O-])OP(=O)(O)OC[C@H]1O[C@@H](n2ccc(N)nc2=O)[C@H](O)[C@@H]1O [CITICOLINE]", 210.2],
  ["NC(=O)[C@@H]1CCCN1C(=O)[C@H](Cc1cnc[nH]1)NC(=O)[C@@H]1CCC(=O)N1 [THYROTROPIN RELEASING HORMONE]", 183.2],
  ["NCCOP(=O)(O)OP(=O)(O)OC[C@H]1O[C@@H](n2ccc(N)nc2=O)[C@H](O)[C@@H]1O [CDP-ETHANOLAMINE]", 186.1],
  ["Nc1ncnc2c1ncn2[C@@H]1O[C@H](COP(=O)(O)OP(=O)(O)OP(=O)(O)O)[C@@H](O)[C@H]1O [ADENOSINE TRIPHOSPHATE]", 193.5]
]}

###

# CONDITION: [M+H]+; instrument: DT; single field, calibrated with Agilent tune mix (Agilent)
VALUE KIND: collision cross section (N2) (Å²)

{"columns": ["MOLECULE", "collision cross section (N2), Å²"],
 "data": [
  ["CC(=O)N[C@H]1[C@H](O[C@H]2[C@H](O)[C@@H](NC(C)=O)C(O)O[C@@H]2CO)O[C@H](CO)[C@@H](O)[C@@H]1O (some centres undefined)", 192.9],
  ["CSCC[C@H](NC(=O)CC[C@H](N)C(=O)O)C(=O)O", 165.1],
  ["CCCCCCCCCCCCCCCC(=O)O[C@H](CC(=O)[O-])C[N+](C)(C)C", 214],
  ["CSC[C@H]1O[C@@H](n2cnc3c(N)ncnc32)[C@H](O)[C@@H]1O", 162.5]
]}

###

# CONDITION: [M+2H]2+; instrument: DT; stepped-field
VALUE KIND: collision cross section (N2) (Å²)

{"columns": ["COMPOUND", "NUMERIC READOUT"],
 "data": [
  ["CCC(C)[C@H](N)C(=O)N[C@@H](Cc1ccccc1)C(=O)N[C@H](C(=O)N[C@@H](CCC(N)=O)C(=O)N[C@@H](CCCCN)C(=O)O)C(C)C (some centres undefined)", 285.5],
  ["CCC(C)[C@H](NC(=O)[C@H](CC(C)C)NC(=O)[C@H](CC(=O)O)NC(=O)[C@@H](N)CCC(=O)O)C(=O)N[C@@H](C)C(=O)N[C@@H](Cc1ccc(O)cc1)C(=O)N[C@@H](CC(C)C)C(=O)N[C@@H](CCCCN)C(=O)O (some centres undefined)", 340.98],
  ["CCC(C)C(NC(=O)C(Cc1ccc(O)cc1)NC(=O)C1CCCN1C(=O)C(CCCN=C(N)N)NC(=O)C(CCCN=C(N)N)NC(=O)C1CCCN1C(=O)C(CCCCN)NC(=O)C(CC(N)=O)NC(=O)C(CCC(=O)O)NC(=O)C(Cc1ccc(O)cc1)NC(=O)C(CC(C)C)NC(=O)C1CCC(=O)N1)C(=O)NC(CC(C)C)C(=O)O (centres undefined)", 434.32],
  ["CCC(C)[C@H](NC(=O)CNC(=O)[C@H](C)NC(=O)[C@H](Cc1ccccc1)NC(=O)[C@@H](NC(=O)[C@@H](N)CCSC)C(C)CC)C(=O)N[C@@H](CCCCN)C(=O)O (some centres undefined)", 305.66]
]}
